The reported measurements were obtained from ChEMBL document CHEMBL4689842.

test system: Fibroblast; test: Multiplex assay against human fibroblast; type: toxicity, cell-based; conditions: 12 h, 10 µM, compound concentration 10 uM, replicate 2
observation type: Population Tubulin-Different-Phenotype (%)
Write the number in % without appending the unit.

As a guide, the following entries are already answered.
molecule: Cl.Cl.Nc1ncnc2c1c(-c1cccc(OCc3ccccc3)c1)cn2[C@H]1C[C@@H](CN2CCC2)C1
unit abbrev: %
test value: 97
--
molecule: Cc1cn(-c2cc(NC(=O)c3ccc4c(c3)CN(c3cncnc3)C[C@@H]4C)cc(C(F)(F)F)c2)cn1
unit abbrev: %
test value: 40
--
molecule: COc1cc2c(NC3CCN(C(C)C)CC3)nc(N3CCC(F)(F)CC3)nc2cc1OCCCN1CCCC1
unit abbrev: %
test value: 97
--
molecule: Nc1nc2c(c(N3CCNCC3)n1)CCC1=C2[C@@H]2CCCC[C@@H]2O1
unit abbrev: %
test value: 92
--
molecule: CCCn1c(=O)c2[nH]c(C34CC5CC(CC3C5)C4)nc2n(CCC)c1=O
unit abbrev: %
test value: 100

If you can, please state the reported Population Tubulin-Different-Phenotype (%) value of Cl.Cl.NC1(c2ccc(-c3nc4ccn5c(=O)[nH]nc5c4cc3-c3ccccc3)cc2)CCC1 .
20

Now try Cc1nc(Cc2cccc(C(F)(F)F)c2)sc1-c1ccc(C(N)=O)nc1 [TP-024n] .
11

Now try COc1ccc(NS(=O)(=O)c2sc3ccc(Cl)cc3c2C)cc1N1CCNCC1.Cl .
94

Now try CCn1c(-c2nonc2N)nc2cnc(Oc3cccc(NC(=O)c4ccc(OCCN5CCOCC5)cc4)c3)cc21 [GSK-269962A] .
100

Now try COc1cc2c(Nc3ccc(NC(=O)c4ccccc4)cc3)ncnc2cc1OCCCN1CCOCC1 .
7

Now try O=C(O)c1ccc2cc(-c3ccc(O)c(C45CC6CC(CC(C6)C4)C5)c3)ccc2c1 .
25

Now try Nc1ccc(C(=O)Nc2cccc(-c3nc(N4CCOCC4)c4oc5ncccc5c4n3)c2)cn1 .
90

Now try CCOc1cc2ncc(C#N)c(Nc3ccc(OCc4cccc(F)c4)c(Cl)c3)c2cc1NC(=O)/C=C/CN(C)C .
78

Now try CC(C)(C)c1cnc(CSc2cnc(NC(=O)C3CCNCC3)s2)o1 .
40

Now try CC(C)N1CCC(C)(C)c2cc(C#Cc3ccc(C(=O)O)cc3)ccc21 .
28
